Biological target: endogenous PIP4K2C C-terminally tagged with HiBiT peptide in MOLT-4 cells (Homo sapiens, UniProt Q8TBX8)
Construct: to C-terminally tag endogenous PIP4K2C with HiBiT peptide; host or cells: MOLT-4 (CRISPR-Cas9 knock-in clone)
Sequence (Q8TBX8 whole entry): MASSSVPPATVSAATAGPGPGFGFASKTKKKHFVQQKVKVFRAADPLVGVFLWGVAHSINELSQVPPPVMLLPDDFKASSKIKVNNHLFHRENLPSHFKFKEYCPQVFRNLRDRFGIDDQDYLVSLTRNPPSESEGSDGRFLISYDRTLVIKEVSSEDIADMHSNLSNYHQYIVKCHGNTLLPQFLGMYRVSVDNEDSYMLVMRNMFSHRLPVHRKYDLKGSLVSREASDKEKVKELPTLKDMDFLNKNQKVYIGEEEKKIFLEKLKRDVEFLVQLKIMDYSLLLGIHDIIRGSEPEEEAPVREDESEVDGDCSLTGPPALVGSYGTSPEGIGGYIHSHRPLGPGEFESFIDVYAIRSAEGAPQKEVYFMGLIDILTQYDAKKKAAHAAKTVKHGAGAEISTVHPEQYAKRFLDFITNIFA
Test: HiBiT PIP4K2C degradation assay in MOLT-4 cells
Format: cell-based
Conditions: 24 hours, 10-point dose response, top concentration 10 micromolar, read-out: HiBIT-degradation MOLT4 PIP4k2C 24 hours DC50
observation_type: DC50

Notebook: O=C1CCC(N2Cc3cc(C4CCN(CC(=O)N5CCC6(CC5)CCN(c5cncc(Nc7ncc(Cl)c(-c8cccc(C9CC9)c8)n7)c5)C6=O)CC4)ccc3C2=O)C(=O)N1 (centres unmarked) , DC50 read as < 500 nM

Notebook: O=C1CCC(Nc2ccc(C3CCN(CC(=O)N4CCC5(CC4)CCN(c4cncc(Nc6ncc(Cl)c(N7CCOC(c8ccccc8)C7)n6)c4)C5=O)CC3)cc2)C(=O)N1 (centres unmarked) , DC50 read as < 500 nM

Notebook: O=C1CCC(N2Cc3cc(NCCCCCC(=O)N4CCC5(CC4)CCN(c4cncc(Nc6ncc(Cl)c(-c7cccc(-c8ccccc8)c7)n6)c4)C5=O)ccc3C2=O)C(=O)N1 (centres unmarked) , DC50 read as < 500 nM

Notebook: O=C1CCC(N2Cc3cc(OC4CCN(C(=O)CN5CCC6(CC5)CCN(c5cncc(Nc7ncc(Cl)c(-c8cccc(C9CC9)c8)n7)c5)C6=O)CC4)ccc3C2=O)C(=O)N1 (centres unmarked) , DC50 read as < 500 nM

Notebook: O=C(COc1ccc(NC2CCC(=O)NC2=O)cc1)NCCCCCCCCCC(=O)Nc1cncc(Nc2ncc(Cl)c(-c3cccc(-c4ccccc4)c3)n2)c1 (centres unmarked) , DC50 read as 500 to 1000 nM
